target_entity: T1, recombinant human IL-23R/Fc chimera (R&D Systems) (human, UniProt Q5VWK5 24-355)
T1 construct: Bought; also called rhIL23RFc
T1 sequence (looked up): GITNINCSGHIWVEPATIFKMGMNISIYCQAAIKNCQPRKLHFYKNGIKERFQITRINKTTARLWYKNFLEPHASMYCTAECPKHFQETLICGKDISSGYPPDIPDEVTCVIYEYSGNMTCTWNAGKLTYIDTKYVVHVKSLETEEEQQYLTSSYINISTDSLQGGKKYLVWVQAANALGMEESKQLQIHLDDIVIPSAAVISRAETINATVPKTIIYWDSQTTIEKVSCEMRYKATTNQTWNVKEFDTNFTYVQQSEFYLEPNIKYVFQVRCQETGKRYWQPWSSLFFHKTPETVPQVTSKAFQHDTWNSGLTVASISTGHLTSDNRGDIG
measurement_protocol: competition ELISA vs IL-23
readout_type: Ratio IC50 to 056-53.H4E IC50
API note: the answer field is a bare number with no unit suffix.

105-20-2A3 ATRIMER complex (designed binder, Homotrimer of three identical chains (ATRIMER complex); one chain is given., not shown: C-terminal tag: His/Myc (pANA4) or HA-StrepII (pANA10)) EPPTQKPKKIVNAKKDVVNTKMFEELKSRLDTLAQEVALLKEQQALQTVCLKGTKVHMKCFLAFTQTKTFHEASEDCISRGGTLSTPQTGSENDALYEYLRQSVGNEAEIWLGLNGSPITNTWVDMTGARIAYKNWETEITAQPDGGFGYFGENCAVLSGAANGKWFDKRCRDQLPYICQFGIV
1.2

Sample 105-08-2D2 ATRIMER complex (designed binder) EPPTQKPKKIVNAKKDVVNTKMFEELKSRLDTLAQEVALLKEQQALQTVCLKGTKVHMKCFLAFTQTKTFHEASEDCISRGGTLSTPQTGSENDALYEYLRQSVGNEAEIWLGLNGSARTGTWVDMTGARIAYKNWETEITAQPDGGFGYFGENCAVLSGAANGKWFDKRCRDQLPYICQFGIV ; Ratio IC50 to 056-53.H4E IC50 observed: 4.1

So for 105-08-1C10 ATRIMER complex (designed binder) EPPTQKPKKIVNAKKDVVNTKMFEELKSRLDTLAQEVALLKEQQALQTVCLKGTKVHMKCFLAFTQTKTFHEASEDCISRGGTLSTPQTGSENDALYEYLRQSVGNEAEIWLGLNGSSVTNTWVDMTGARIAYKNWETEITAQPDGGWGYFGENCAVLSGAANGKWFDKRCRDQLPYICQFGIV , the logged Ratio IC50 to 056-53.H4E IC50 turned out to be 5
